# Target under test: T1, cynomolgus Tyro3 ECD, His-Strep tagged
# T1 construct: also called cyno TYRO3 ECD 8hisstrep
# T1 extracellular domain: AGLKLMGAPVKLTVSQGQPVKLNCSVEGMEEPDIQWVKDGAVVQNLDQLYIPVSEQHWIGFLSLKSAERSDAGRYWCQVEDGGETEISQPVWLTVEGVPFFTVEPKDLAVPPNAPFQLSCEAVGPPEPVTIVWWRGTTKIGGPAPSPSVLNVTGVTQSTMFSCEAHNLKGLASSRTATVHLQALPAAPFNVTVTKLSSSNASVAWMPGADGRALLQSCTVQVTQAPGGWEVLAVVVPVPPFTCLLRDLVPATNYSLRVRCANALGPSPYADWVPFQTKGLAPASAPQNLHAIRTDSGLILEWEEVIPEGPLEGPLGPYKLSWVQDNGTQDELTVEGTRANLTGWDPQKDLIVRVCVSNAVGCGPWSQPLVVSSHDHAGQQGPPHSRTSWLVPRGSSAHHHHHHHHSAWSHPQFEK
# Assay details: sandwich ELISA, Strep-tagged cynomolgus Tyro3 ECD captured on StrepMAB plate, IgG 3-fold from 3 µg/mL, anti-human IgG1-HRP

- Binder: "IgG2713 (antibody, V domains shown, also called IGX2713) VH: EVQLVQSGADVKKPGASLTISCQASGYTFTDYWISWVRQKPGKGLEWMGRISRHGSQTYYGPSFQGHVTISADRSTATAYLQWRSLEASDTAMYYCVRAGGQTSGGTIPEYYQHWGPGTLVTVSS VL: SYELTQPPSVSVSPGQTARITCSGDALPKKYAYWYQQKSGQAPVLVIYEDHKRASGIPERFSGSSSGTMATLTISGAQVEDEADYYCYSISPAGNYGVFGGGTKLTVL"
  binding result: "binds"
- Binder: "IgG2717 (antibody, V domains shown, also called IGX2717) VH: EVQLVQSGADVKKPGASLTISCQASGYTFTDYWISWVRQKPGKGLEWMGEIFLPPSTTVYGPSFQGHVTISADRSTATAYLQWRSLEASDTAMYYCVRQTRLTSGGTIPEYYQHWGPGTLVTVSS VL: SYELTQPPSVSVSPGQTARITCSGDALPKKYAYWYQQKSGQAPVLVIYEDNKRGSGIPERFSGSSSGTMATLTISGAQVEDEADYYCYSKSPEGNYMVFGGGTKLTVL"
  binding result: "binds"
- Binder: "IgG2410 (antibody, V domains shown, also called IGX2410) VH: EVQLVQSGADVKKPGASLTISCQASGYTFTDYWISWVRQKPGKGLEWMGQIVPRASRTNYGPSFQGHVTISADRSTATAYLQWRSLEASDTAMYYCVRPYFQTSGGTIPEYYQHWGPGTLVTVSS VL: SYELTQPPSVSVSPGQTARITCSGDALPKKYAYWYQQKSGQAPVLVIYEDEKRASGIPERFSGSSSGTMATLTISGAQVEDEADYYCYSQERNGNYAVFGGGTKLTVL"
  binding result: "binds"
